Origin of measurements: paper PMC5046105

# kon values compiled below
target desc: pWT PDZ2 K392M (Homo sapiens, UniProt Q12959, C378A/I342W/K392M)
Construct: constituting SAP97 residues 311–407 and the mutations I342W and C372A; His-tagged lipoyl protein domain (N, cleaved yes); made in house
protocol summary: Stopped-flow binding kinetics, peptide with pWT PDZ2 K392M
assay setup: Trp342 fluorescence, 1 µM PDZ, peptide 2–40 µM, N-acetylated peptide, 50 mM potassium phosphate pH 7.5, 10 °C, value ± standard error (EKKHTLL: mean of two experiments)
Ends that are not written are not given here.
assay readout: kon (M⁻¹ s⁻¹)

>>> df
                                  substance  quantitative_readout
0                      Ac-KRKETLV [KRKETLV]               7.2e+06
1  Ac-RRRETQV [RRRETQV, reference compound]                 9e+06
2                      Ac-PGKETQL [PGKETQL]               1.8e+07
3                      Ac-YRRESAI [YRRESAI]               2.5e+07
4                      Ac-SARSTDV [SARSTDV]               1.2e+07
5                      Ac-VSKETPL [VSKETPL]               2.4e+07
6                      Ac-TSRETDL [TSRETDL]               1.5e+07
7                      Ac-RSISTDV [RSISTDV]               1.7e+07
8                      Ac-EKKHTLL [EKKHTLL]               1.1e+07
9                      Ac-NSKETVV [NSKETVV]               9.7e+06
